Reported GI50 is given for each of the following compounds.
tested on: SN12C; assay: NCI tumour cell line growth inhibition, 48 h
Active and inactive are the calls of the source. No stated cut-off is given here; in the data, active = GI50 up to about 1.1 µM and inactive = higher.
Readout Name: GI50

INSERT INTO results (compound, measured_on, readout_name, value_observed) VALUES
  ('O=C1N[C@@H]2c3c(csc3Br)C(=O)[C@@H]2O1', 'SN12C', 'GI50', '42.5 µM (inactive)'),
  ('O=C1NC2C=CN(Cc3ccccc3)C=C2C(=O)N2CCCC12 (centres undefined)', 'SN12C', 'GI50', '> 100 µM (inactive)'),
  ('CCOC(=O)NC(=O)c1cn(CCSCCOC(=O)NCCCCCCNC(=O)OCCSCCn2cc(C(=O)NC(=O)OCC)c(=O)n(C)c2=O)c(=O)n(C)c1=O', 'SN12C', 'GI50', '21.8 µM (inactive)'),
  ('CCOC(=O)c1ccc2c(c1)nc1n2C(c2c(F)cccc2F)SC1 (centres undefined)', 'SN12C', 'GI50', '56.4 µM (inactive)'),
  ('COc1ccc(C(C)NNC(=O)c2cc[n+]([BH2-]C#N)cc2)c(OC)c1 (centres undefined)', 'SN12C', 'GI50', '> 100 µM (inactive)'),
  ('CCOC(=O)NN1C(=O)C(=P(c2ccccc2)(c2ccccc2)c2ccccc2)C(C(=O)OCC)=C1C', 'SN12C', 'GI50', '> 100 µM (inactive)'),
  ('Cn1c2c(c3c(=O)[nH]ncc31)Cc1ccccc1-2', 'SN12C', 'GI50', '7.62 µM (inactive)'),
  ('O=c1nc(-c2ccccc2)scc1-c1ccccc1', 'SN12C', 'GI50', '> 100 µM (inactive)'),
  ('COc1cc(O)c(C(=O)/C=C/c2ccc(O)cc2)cc1Oc1ccc(C(=O)/C=C/c2ccc(O)cc2)c(O)c1', 'SN12C', 'GI50', '2.45 µM (inactive)');
